# pKi per entry
- target_or_test_system: Neuropeptide Y receptor type 2 (Homo sapiens, UniProt P49146)
- Sequence (P49146 whole entry): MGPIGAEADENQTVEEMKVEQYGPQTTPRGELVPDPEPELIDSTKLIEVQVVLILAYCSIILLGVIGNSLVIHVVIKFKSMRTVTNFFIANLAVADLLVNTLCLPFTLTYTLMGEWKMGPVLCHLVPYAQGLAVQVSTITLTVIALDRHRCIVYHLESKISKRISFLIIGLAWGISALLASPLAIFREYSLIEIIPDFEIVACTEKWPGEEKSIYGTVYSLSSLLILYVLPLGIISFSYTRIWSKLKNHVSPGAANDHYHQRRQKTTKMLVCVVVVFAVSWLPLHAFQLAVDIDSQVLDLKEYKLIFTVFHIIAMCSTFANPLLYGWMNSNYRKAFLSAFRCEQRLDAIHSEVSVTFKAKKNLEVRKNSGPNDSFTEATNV
- method_notes: Displacement of [3H]propionyl-pNPY from human Y2 receptor expressed in CHO cells measured after 2 hrs by microbeta liquid scintillation counting analysis
- Assay type: cell-based
- condition_summary: cho; read-out: Ki
pKi: −log10 of the molar value. Square brackets hold non-standard residues; d marks the D form. Peptide text beside a SMILES is read from it. ξ: configuration not given here. ξOrn = NCCCC(N)C(=O)O

Below, 4 compounds whose answers are already recorded.
Task: Would you mind telling me what pKi value was observed for CC(C)C[C@H](NC(=O)[C@@H](N)CCCNC(=N)N)C(=O)N[C@@H](CCCNC(=N)N)C(=O)N[C@@H](Cc1ccc(O)cc1)C(N)=O ?
Output: < 5.00

Task: Now consider CC(C)C[C@H](NC(=O)[C@H](CCCNC(=N)N)NC(=O)[C@H](Cc1ccc(O)cc1)NC(=O)[C@@H](N)CCCNC(=N)N)C(=O)N[C@@H](CCCNC(=N)N)C(=O)N[C@@H](Cc1ccc(O)cc1)C(N)=O and answer again.
Output: < 5.00

Task: Now consider CC(=O)N[C@@H](CCCNC(=N)N)C(=O)N[C@@H](Cc1c[nH]c2ccccc12)C(=O)N[C@@H](CCCNC(=N)N)C(=O)N[C@@H](CC(C)C)C(=O)N[C@@H](CCCNC(=N)N)C(=O)N[C@@H](Cc1ccc(O)cc1)C(N)=O and answer again.
Output: < 6.00

Task: Now consider CC(=O)N[C@@H](CCCNC(=N)N)C(=O)NC(CCCN)C(=O)NCC(=O)N[C@@H](Cc1c[nH]c2ccccc12)C(=O)N[C@@H](CCCNC(=N)N)C(=O)N[C@@H](CC(C)C)C(=O)N[C@@H](CCCNC(=N)N)C(=O)N[C@@H](Cc1ccc(O)cc1)C(N)=O (stereo not given in full) (Ac-R[ξOrn]GWRLRY-NH2) and answer again.
Output: < 6.00

# evaluate next
Task: Would you mind telling me what pKi value was observed for CN[C@@H](CCCNC(=N)N)C(=O)N[C@@H](CC(C)C)C(=O)N[C@@H](CCCNC(=N)N)C(=O)N[C@@H](Cc1ccc(O)cc1)C(N)=O ?
Output: < 6.00

From: ChEMBL document CHEMBL4619778
